// data source = patent US12404279B2

# pIC50 per entry for full-length USP7 (Homo sapiens (Human), UniProt Q93009)
pIC50: −log10 of the molar value. Counter-ions that a name gives are not always drawn.
endpoint_label: pIC50

1. Cc1cc(C(F)(F)F)nc(-c2ccnc3cc(CN4C(=O)C5C(C4=O)C5(C)C)sc23)c1C[C@@H]1CNCCO1 (stereo partly drawn) [Example 96, dihydrochloride]; > 6.30
2. Cc1cc(C(F)(F)F)nc(-c2ccnc3cc(CN4C(=O)C5C(C4=O)C5(C)C)sc23)c1C(=O)N1CCC(N)CC1 (stereo not drawn) [Example 112, dihydrochloride]; > 6.30
3. CN[C@H]1CCCN(C(=O)c2c(C)cc(C(F)(F)F)nc2-c2ccnc3cc(CN4C(=O)C5C(C4=O)C5(C)C)sc23)C1 (stereo partly drawn) [Example 144, trihydrochloride]; 5.00 to 6.00
4. Cc1cc(C#N)nc(-c2ccnc3cc(CN4C(=O)C5C(C4=O)C5(C)C)sc23)c1NC1CNC1 (stereo not drawn) [Example 24, 2,2,2-trifluoroacetate]; > 6.30
5. Cc1cc(C(F)(F)F)nc(-c2ccnc3cc(CN4C(=O)C5C(C4=O)C5(C)C)sc23)c1CC1CNCCN1 (racemic) [Example 35, hydrochloride]; > 6.30
6. Cc1cc(C#N)nc(-c2ccnc3cc(CN4C(=O)C5C(C4=O)C5(C)C)sc23)c1C(=O)N1CCOCC1 (stereo not drawn) [Example 58, hydrochloride]; 6.00 to 6.30
7. Cc1nc(Cl)cc(-c2ccnc3cc(CN4C(=O)C5C(C4=O)C5(C)C)sc23)c1NC(=O)[C@@H]1CCNC1 (stereo partly drawn) [Example 120, 2,2,2-trifluoroacetate]; 5.00 to 6.00
8. Cc1cc(C(F)(F)F)nc(-c2ccnc3cc(CN4C(=O)C5C(C4=O)C5(C)C)sc23)c1NC1CCNCC1 (stereo not drawn) [Example 128]; > 6.30
9. Cc1nc(Cl)cc(-c2ccnc3cc(CN4C(=O)C5C(C4=O)C5(C)C)sc23)c1NC1CCNC1 (racemic) [Example 125, 2,2,2-trifluoroacetate]; > 6.30
10. Cc1cc(Cl)nc(-c2ccnc3cc(CN4C(=O)C5C(C4=O)C5(C)C)sc23)c1NC1CCNCC1 (stereo not drawn) [Example 127]; > 6.30
11. Cc1nc(C#N)cc(-c2ccnc3cc(CN4C(=O)C5C(C4=O)C5(C)C)sc23)c1C(=O)N1CC[C@H](O)C1 (stereo partly drawn) [Example 11, 2,2,2-trifluoroacetate]; > 6.30
12. Cc1cc(C(F)(F)F)nc(-c2ccnc3cc(CN4C(=O)C5C(C4=O)C5(C)C)sc23)c1C(=O)N1CCC(F)(F)C1 (stereo not drawn) [Example 83, hydrochloride]; > 6.30
